- procedure-text: Approximate solubility of solid state Form V at 25° C. and 50° C. (visual observation)
- Format: physicochemical
- experimental-setup: organic solvent or mixture, thermodynamic from solid, SL11 2-methyl-THF, 50° C.
- Experimental: Maximum volume of each solvent added was 1 mL. Approximate solubility was determined by visual observation.

| molecule | solubility at 10 min |
| --- | --- |
| Nc1nc(=O)n(-c2ccccc2Cl)c2nc(C(F)(F)F)ccc12 [solid state Form V] | < 5000 µg/mL |

---

- procedure-text: Approximate solubility of solid state Form V at 25° C. and 50° C. (visual observation)
- Format: physicochemical
- experimental-setup: organic solvent or mixture, thermodynamic from solid, SL3 Ethanol, 25° C.
endpoint-name: solubility at 10 min

| molecule | data-value |
| --- | --- |
| Nc1nc(=O)n(-c2ccccc2Cl)c2nc(C(F)(F)F)ccc12 [solid state Form V] | 7000 to 8000 µg/mL |
